- Assay Remarks: Mammalian toxicity, oral, Swiss white mice (LD50)
- Format: in vivo
- Conditions Used: mouse, in vivo; oral, corn oil carrier, Swiss white mice
Test Readout: LD50 (mg/kg)
// return numeric value only (unit: mg/kg, not printed)

- CCOC(=O)N(SNP(=O)(OC)SC)C(C)(C)C (stereo not shown) [Compound 9]: 50
- CCCOC(=O)N(SNP(=O)(OC)SC)C(C)C (stereo not shown) [Compound 8]: 50
- CCCOC(=O)N(SNP(=O)(OC)SC)C(C)(C)C (stereo not shown) [Compound 10]: 50
- CCOC(=O)N(SNP(=O)(OC)SC)C(C)C (stereo not shown) [Compound 6]: 50

Output LD50 of CCCCCCOC(=O)N(CC)SNP(=O)(OC)SC (stereo not shown) [Compound 2]
34

Find the measured LD50 of CCCOC(=O)N(CCC)SNP(=O)(OC)SC (stereo not shown) [Compound 5] and report it.
36

Give the value of LD50 reported for the following: CCN(SNP(=O)(OC)SC)C(=O)OC (stereo not shown) [Compound 1]
30
